B1: CDKN1A (parent)
chain: GRKRRQTSMTDFYHSKRRLIFSKR

- Variants of: B1
- experiment-notes: protein stability index of a GFP-peptide fusion (GPS, HEK-293T) (PSI 1-6); higher = more stable;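 also: lentivirally expressed fusions sorted by FACS into six bins by GFP to DsRed ratio, PSI derived from sequencing read proportions per bin multiplied by bin number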
- condition: c terminus: a fixed tail appended
# binarize protein stability index: threshold 3 inclusive, high side Fulfilled, low side Not fulfilled

M9C; Not fulfilled
R17A; Not fulfilled
R4M; Not fulfilled
G1L; Not fulfilled
F21K; Fulfilled

## Input State whether the measured protein stability index reaches 3, counting equality as reaching it, for G1W
## Output Fulfilled

## Input State whether the measured protein stability index reaches 3, counting equality as reaching it, for F21A
## Output Not fulfilled

## Input State whether the measured protein stability index reaches 3, counting equality as reaching it, for R24E
## Output Not fulfilled

## Input State whether the measured protein stability index reaches 3, counting equality as reaching it, for H14C
## Output Not fulfilled

## Input State whether the measured protein stability index reaches 3, counting equality as reaching it, for L19I
## Output Not fulfilled

## Input State whether the measured protein stability index reaches 3, counting equality as reaching it, for H14Y
## Output Fulfilled

## Input State whether the measured protein stability index reaches 3, counting equality as reaching it, for K3C
## Output Fulfilled

## Input State whether the measured protein stability index reaches 3, counting equality as reaching it, for T10F
## Output Fulfilled

## Input State whether the measured protein stability index reaches 3, counting equality as reaching it, for K16I
## Output Fulfilled
